Data provenance: patent US9133148B2

molecular target: MAGL (Mus musculus (Mouse), UniProt O35678); experiment: In vitro competitive activity-based protein profiling (FP-Rh), mouse MAGL; format: biochemical; conditions: mouse brain membrane proteome, competitive ABPP
Sequence (O35678 whole entry): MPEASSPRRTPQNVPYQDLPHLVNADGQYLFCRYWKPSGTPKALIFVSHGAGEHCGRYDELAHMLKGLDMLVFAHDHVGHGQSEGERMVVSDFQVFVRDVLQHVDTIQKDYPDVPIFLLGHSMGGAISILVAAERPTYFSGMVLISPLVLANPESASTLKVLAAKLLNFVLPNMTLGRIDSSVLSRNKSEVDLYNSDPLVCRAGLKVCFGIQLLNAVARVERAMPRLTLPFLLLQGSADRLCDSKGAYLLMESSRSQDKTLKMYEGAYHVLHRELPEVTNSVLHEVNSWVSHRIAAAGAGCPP
testReadout: IC50

| compound | testReadout | result |
| --- | --- | --- |
| O=C(OC(C(F)(F)F)C(F)(F)F)N1CCN(Cc2cccc(Oc3ccccc3)c2)CC1 | IC50 | < 100 nM |
| O=C(OC(C(F)(F)F)C(F)(F)F)N1CCN(C(c2ccc(Br)cc2)c2ccc(Br)cc2)CC1 | IC50 | 100 to 1000 nM |
| Cc1ccc(S(=O)(=O)N2CCN(C(=O)OC(C(F)(F)F)C(F)(F)F)CC2)cc1 | IC50 | < 100 nM |
| Cc1cc(N2CCN(C(=O)OC(C(F)(F)F)C(F)(F)F)CC2)c2ccccc2n1 | IC50 | > 1000 nM |
| O=C(OC(C(F)(F)F)C(F)(F)F)N1CCC(C(c2ccc3c(c2)OCO3)c2ccc3c(c2)OCO3)CC1 | IC50 | < 100 nM |
| COC(=O)C(OC(=O)N(C)CCc1ccccc1)C(F)(F)F (centres unmarked) | IC50 | > 1000 nM |
| O=C(OC(C(F)(F)F)C(F)(F)F)N1CCN(S(=O)(=O)c2cccc(C(F)(F)F)c2)CC1 | IC50 | 100 to 1000 nM |
| O=C(OC(C(F)(F)F)C(F)(F)F)N1CCC(=C(c2ccc3c(c2)OCO3)c2ccc3c(c2)OCO3)CC1 | IC50 | < 100 nM |
